# Test target: Adenosine receptor A2a and A3 (Rattus norvegicus) (UniProt P30543+P28647)
# Sequence (P30543 whole entry): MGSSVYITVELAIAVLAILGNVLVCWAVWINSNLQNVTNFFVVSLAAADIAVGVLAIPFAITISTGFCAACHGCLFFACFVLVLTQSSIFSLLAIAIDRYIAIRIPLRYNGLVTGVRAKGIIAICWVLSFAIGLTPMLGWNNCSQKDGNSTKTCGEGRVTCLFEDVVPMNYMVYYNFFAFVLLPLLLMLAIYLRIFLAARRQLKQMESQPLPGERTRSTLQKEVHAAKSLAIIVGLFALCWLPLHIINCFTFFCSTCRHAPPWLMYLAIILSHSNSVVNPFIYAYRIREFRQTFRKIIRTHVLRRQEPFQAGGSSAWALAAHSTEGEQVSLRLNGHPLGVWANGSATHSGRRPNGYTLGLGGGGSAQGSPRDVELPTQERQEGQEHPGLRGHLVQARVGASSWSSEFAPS
# Test: Selectivity for A2a and A3 receptors in rat brain as ratio of Ki
# Assay type: tissue-based
Experimental endpoint: Selectivity ratio

Consider the following illustrative entries.
| Molecule | Value reported |
| --- | --- |
| CCCCn1c(=O)c2c(ncn2C2O[C@H](CO)[C@@H](O)[C@H]2O)n(CCCC)c1=S (some centres undefined) | 3 |
| CCCCn1c(=O)c2c(ncn2C2O[C@H](C(N)=O)[C@@H](O)[C@H]2O)n(CCCC)c1=O (some centres undefined) | 3.6 |

P: CCCCCn1c(=O)c2c(ncn2C2O[C@H](CO)[C@@H](O)[C@H]2O)n(CCCCC)c1=O (some centres undefined)
Q: CCCCn1c(=O)c2c(ncn2C2O[C@H](C(=O)NCC)[C@@H](O)[C@H]2O)n(CCCC)c1=O (some centres undefined)
R: CCCCn1c(=O)c2c(ncn2C2O[C@H](CO)[C@@H](O)[C@H]2O)n(CCCC)c1=O (some centres undefined)
S: CCCCn1c(=O)c2c(ncn2C2O[C@H](CO)[C@@H](O)[C@H]2O)n(Cc2ccccc2)c1=O (some centres undefined)
Ask: Sort these molecules on Selectivity ratio so the largest reading comes first. Sort and list the labels as requested.
Reply: Q, P, R, S
(Q: 63, P: 9.8, R: 3.2, S: 0.67)

====

# Test target: Adenosine receptor A3 (Rattus norvegicus, UniProt P28647)
# Sequence (P28647 whole entry): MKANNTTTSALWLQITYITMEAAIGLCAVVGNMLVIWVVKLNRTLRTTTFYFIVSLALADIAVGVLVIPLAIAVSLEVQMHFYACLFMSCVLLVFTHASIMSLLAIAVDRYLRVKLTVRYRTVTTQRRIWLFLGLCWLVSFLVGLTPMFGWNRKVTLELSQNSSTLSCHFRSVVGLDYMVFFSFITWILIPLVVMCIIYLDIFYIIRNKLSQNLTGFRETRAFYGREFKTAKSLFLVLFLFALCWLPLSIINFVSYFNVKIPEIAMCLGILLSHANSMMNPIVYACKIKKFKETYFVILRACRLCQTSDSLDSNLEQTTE
# Test: Displacement of specific [125]AB-MECA binding in membranes of CHO cells stably transfected with the rat A3-cDNA
pKi: −log10 of the molar value.
Experimental endpoint: pKi

| Compound | pKi |
| --- | --- |
| CCCCn1c(=O)c2c(ncn2C2O[C@H](C(N)=O)[C@@H](O)[C@H]2O)n(CCCC)c1=O (some centres undefined) | 4.82 |

A: CCCCCCn1c(=O)c2c(ncn2C2O[C@H](C(=O)NC)[C@@H](O)[C@H]2O)n(CCCCCC)c1=O (some centres undefined)
B: CCCn1c(=O)c2c(ncn2C2O[C@H](CO)[C@@H](O)[C@H]2O)n(CCC)c1=O (some centres undefined)
C: CCCCn1c(=O)c2c(ncn2C2O[C@H](C(=O)NCC)[C@@H](O)[C@H]2O)n(CCCC)c1=O (some centres undefined)
Ask: Sort these compounds on pKi so the largest reading comes first. Sort and list the labels as requested.
Reply: C, A, B
(C: 6.22, A: 4.99, B: 4.09)

====

# Test target: Adenosine receptors; A1 & A3 (Rattus norvegicus) (UniProt P25099+P28647)
# Sequence (P25099 whole entry, looked up, one chain of several): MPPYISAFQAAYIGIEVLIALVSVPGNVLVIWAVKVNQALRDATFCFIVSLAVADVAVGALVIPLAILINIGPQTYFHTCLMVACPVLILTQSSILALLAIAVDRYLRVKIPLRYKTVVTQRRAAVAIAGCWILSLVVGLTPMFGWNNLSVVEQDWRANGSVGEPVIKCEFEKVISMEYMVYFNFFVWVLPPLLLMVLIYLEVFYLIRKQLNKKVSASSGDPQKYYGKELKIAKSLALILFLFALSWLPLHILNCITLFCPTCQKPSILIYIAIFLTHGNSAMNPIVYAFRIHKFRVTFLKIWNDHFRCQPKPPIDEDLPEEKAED
# Test: Selectivity ratio (Ki's)for A1 and A3 receptors in rat brain
# Format: tissue-based
Experimental endpoint: Selectivity ratio

A: CCCCCCn1c(=O)c2c(ncn2C2O[C@H](CO)[C@@H](O)[C@H]2O)n(CCCCCC)c1=O (stereo not given in full)
B: CCCCCn1c(=O)c2c(ncn2C2O[C@H](CO)[C@@H](O)[C@H]2O)n(CCCCC)c1=O (stereo not given in full)
Ask: Higher Selectivity ratio: A or B ? Choose, then provide that item's label.
Reply: B
(B: 1.8, A: 0.23)

1: Cn1c(=O)c2c(ncn2C2O[C@H](CO)[C@@H](O)[C@H]2O)n(C)c1=O (stereo not given in full)
2: CCCCn1c(=O)c2c(ncn2C2O[C@H](CO)[C@@H](O)[C@H]2O)n(CCCC)c1=S (stereo not given in full)
Ask: Higher Selectivity ratio: 1 or 2 ? Choose, then provide that item's label.
Reply: 2
(2: 1.6, 1: 0.3)

====

# Test target: Adenosine receptor A2a (Rattus norvegicus)
# Test: Displacement of specific [3H]- CGS-21680 in rat striatal membranes A2a receptor at 10e-4 M concentration
# Type: cell membranes
# Condition set: Membrane
Experimental endpoint: inhibition (%)

| Compound | Test target | Experimental endpoint | Value reported |
| --- | --- | --- | --- |
| CCCn1c(=O)c2c(ncn2C2O[C@H](CO)[C@@H](O)[C@H]2O)n(CCC)c1=O (some centres undefined) | Adenosine receptor A2a (Rattus norvegicus) | inhibition | 32 |
| CCCCCn1c(=O)c2c(ncn2C2O[C@H](C(=O)NC)[C@@H](O)[C@H]2O)n(CCCCC)c1=O (some centres undefined) | Adenosine receptor A2a (Rattus norvegicus) | inhibition | 2 |

1: CCCCCCn1c(=O)c2c(ncn2C2O[C@H](C(=O)NC)[C@@H](O)[C@H]2O)n(CCCCCC)c1=O (some centres undefined)
2: COc1nc2c(c(=O)n(C)c(=O)n2C)n1C1O[C@H](CO)[C@@H](O)[C@H]1O (some centres undefined)
Ask: Higher inhibition: 1 or 2 ? Choose, then provide that item's label.
Reply: 2
(2: 4%, 1: 0%)

====

# Test target: Adenosine receptor A3 (Rattus norvegicus)
# Test: Displacement of specific [125]AB-MECA binding in membranes of CHO cells stably transfected with the rat A3-cDNA
Experimental endpoint: Ki (nM)

I: CCCCn1c(=O)c2c(ncn2C2O[C@H](CO)[C@@H](O)[C@H]2O)n(Cc2ccccc2)c1=O (stereo partly drawn)
II: COc1nc2c(c(=O)n(C)c(=O)n2C)n1C1O[C@H](CO)[C@@H](O)[C@H]1O (stereo partly drawn)
III: CCCCn1c(=O)c2c(ncn2C2O[C@H](CO)[C@@H](O)[C@H]2O)n(CCCC)c1=S (stereo partly drawn)
Ask: Which order do the above compounds take when sorted by rising Ki? Smallest first. Sort and list the labels as requested.
Reply: II, III, I
(II: 74 nM, III: 1400 nM, I: 12900 nM)

====

# Test target: Adenosine receptor A2a and A3 (Rattus norvegicus) (UniProt P30543+P28647)
# Test: Selectivity for A2a and A3 receptors in rat brain as ratio of Ki
# Format: tissue-based
Selectivity ratio listing for selected compounds.

Consider the following illustrative entries.
| Compound | Selectivity ratio |
| --- | --- |
| CCCCCn1c(=O)c2c(ncn2C2O[C@H](C(=O)NC)[C@@H](O)[C@H]2O)n(CCCCC)c1=O (stereo partly drawn) | > 1 |
| CCCCn1c(=O)c2c(ncn2C2O[C@H](C(=O)OC)[C@@H](O)[C@H]2O)n(CCCC)c1=O (stereo partly drawn) | > 1 |

# evaluate next
Ask: Any idea what Selectivity ratio was measured for CCCn1c(=O)c2c(ncn2C2O[C@H](CO)[C@@H](O)[C@H]2O)n(CCC)c1=O (stereo partly drawn) ?
Reply: > 1
